B1: tRNA (parent)
chain: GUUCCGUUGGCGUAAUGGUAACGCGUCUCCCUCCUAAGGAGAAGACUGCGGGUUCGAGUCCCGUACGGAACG

# Variants of: B1
# protocol: yeast fitness relative to wild type (ratio to wild type); higher = fitter; tRNA-Arg(CCU), competitive growth, 37 C, YPD
Fewer inactive variants are shown than the library holds.
Binning of yeast fitness into classes: low class (below 0.6), middle class (0.6 to below 0.8), high class (0.8 or more)

Below are worked cases with known answers.
# mutation, labelClass
records = [
    ("G10C C33G C62A G67C", "low class"),
    ("U7G C27G U28G", "low class"),
    ("C4G C30A C34U A37G", "low class"),
    ("G18C A65G", "middle class"),
    ("C33U A36U A43C A69C", "middle class"),
    ("U7G G39A C66U A69U", "low class"),
    ("A37G U59A", "middle class"),
    ("U8C C61U", "high class"),
]

Kindly state the category for this variant: C30A A70C high class

Kindly state the category for this variant: G10C U13A A14G A20G C22A C24G G52C low class
